Tested on: Escherichia coli TOP10
Test: shrunken log2 fold change of peptide-encoding DNA abundance (4.5 h post-induction vs induction); higher = less antimicrobial activity (less host growth inhibition)
Conditions: time post-induction: 4.5 h; library: site-saturation at positions 5, 18, 19, 20
value-type: shrunken log2 fold change
# respond with the number and nothing more

Here's what some known entries look like.
RRIRCRPPRLPRPRPRPFAQPRP	0.00363
RRIRRRPPRLPRPRPRPHVVPRP	0.0538
RRIRQRPPRLPRPRPRPAWRPRP	0.497
RRIRERPPRLPRPRPRPVVEPRP	0.118
RRIRNRPPRLPRPRPRPDTFPRP	0.0183

Input: I am curious: what shrunken log2 fold change value has been reported for RRIRCRPPRLPRPRPRPNMMPRP ?
Output: -0.475

Input: I am curious: what shrunken log2 fold change value has been reported for RRIRSRPPRLPRPRPRPYDPPRP ?
Output: -1

Input: I am curious: what shrunken log2 fold change value has been reported for RRIRGRPPRLPRPRPRPRYSPRP ?
Output: -0.173

====

System: Escherichia coli TOP10
Experiment: shrunken log2 fold change of peptide-encoding DNA abundance (4.5 h post-induction vs induction); higher = less antimicrobial activity (less host growth inhibition)
Conditions: time post-induction: 4.5 h; library: site-saturation at positions 5, 18, 19, 20
# cutoff -0.08 applies to shrunken log2 fold change; >= gives yes (1), < gives no (0)

RRIRVRPPRLPRPRPRPTLIPRP	yes (1)
RRIRTRPPRLPRPRPRPIPCPRP	no (0)
RRIRRRPPRLPRPRPRPIMHPRP	no (0)
RRIRNRPPRLPRPRPRPDHFPRP	yes (1)
RRIRQRPPRLPRPRPRPVWPPRP	yes (1)

Input: # bool: shrunken log2 fold change of RRIRMRPPRLPRPRPRPHHLPRP >= -0.08
Output: yes (1)

Input: # bool: shrunken log2 fold change of RRIRWRPPRLPRPRPRPQRYPRP >= -0.08
Output: yes (1)

Input: # bool: shrunken log2 fold change of RRIRFRPPRLPRPRPRPVSPPRP >= -0.08
Output: no (0)

====

Each record here notes measured shrunken log2 fold change.
Test system: Escherichia coli TOP10
Assay: shrunken log2 fold change of peptide-encoding DNA abundance (4.5 h post-induction vs induction); higher = less antimicrobial activity (less host growth inhibition)
Details: time post-induction: 4.5 h; library: site-saturation at positions 5, 18, 19, 20

Here's what some known entries look like.
RRIRSRPPRLPRPRPRPHQMPRP	-0.207
RRIRARPPRLPRPRPRPLRHPRP	0.619
RRIRPRPPRLPRPRPRPVLMPRP	-0.161
RRIRLRPPRLPRPRPRPYWRPRP	0.231
RRIRTRPPRLPRPRPRPDRTPRP	-0.442

Input: I am curious: what shrunken log2 fold change value has been reported for RRIRNRPPRLPRPRPRPLSSPRP ?
Output: -0.0989

Input: I am curious: what shrunken log2 fold change value has been reported for RRIRLRPPRLPRPRPRPLFFPRP ?
Output: 0.417

Input: I am curious: what shrunken log2 fold change value has been reported for RRIRFRPPRLPRPRPRPVPFPRP ?
Output: -0.102

Input: I am curious: what shrunken log2 fold change value has been reported for RRIRERPPRLPRPRPRPYYDPRP ?
Output: -0.362

Input: I am curious: what shrunken log2 fold change value has been reported for RRIRDRPPRLPRPRPRPKKCPRP ?
Output: 0.0235

Input: I am curious: what shrunken log2 fold change value has been reported for RRIRVRPPRLPRPRPRPTEWPRP ?
Output: 0.322

Input: I am curious: what shrunken log2 fold change value has been reported for RRIRRRPPRLPRPRPRPFRSPRP ?
Output: -0.0534

Input: I am curious: what shrunken log2 fold change value has been reported for RRIRQRPPRLPRPRPRPLLGPRP ?
Output: 0.158

Input: I am curious: what shrunken log2 fold change value has been reported for RRIRTRPPRLPRPRPRPTGMPRP ?
Output: 0.13

====

Test system: Escherichia coli TOP10
Assay: shrunken log2 fold change of peptide-encoding DNA abundance (4.5 h post-induction vs induction); higher = less antimicrobial activity (less host growth inhibition)
Settings: time post-induction: 4.5 h; library: site-saturation at positions 5, 18, 19, 20
value-type: shrunken log2 fold change
# respond with the number and nothing more

RRIRIRPPRLPRPRPRPECGPRP	-0.118

Input: I am curious: what shrunken log2 fold change value has been reported for RRIRARPPRLPRPRPRPKAIPRP ?
Output: 0.496

Input: I am curious: what shrunken log2 fold change value has been reported for RRIRRRPPRLPRPRPRPWKVPRP ?
Output: 0.00548

Input: I am curious: what shrunken log2 fold change value has been reported for RRIRCRPPRLPRPRPRPCCIPRP ?
Output: -0.166

Input: I am curious: what shrunken log2 fold change value has been reported for RRIRSRPPRLPRPRPRPKVRPRP ?
Output: 0.0559

Input: I am curious: what shrunken log2 fold change value has been reported for RRIRIRPPRLPRPRPRPQYKPRP ?
Output: -0.848

Input: I am curious: what shrunken log2 fold change value has been reported for RRIRYRPPRLPRPRPRPSEQPRP ?
Output: -0.0359

Input: I am curious: what shrunken log2 fold change value has been reported for RRIRQRPPRLPRPRPRPQIIPRP ?
Output: -0.0763

Input: I am curious: what shrunken log2 fold change value has been reported for RRIRDRPPRLPRPRPRPIKIPRP ?
Output: 0.0725

Input: I am curious: what shrunken log2 fold change value has been reported for RRIRFRPPRLPRPRPRPETCPRP ?
Output: -0.0911

Input: I am curious: what shrunken log2 fold change value has been reported for RRIRWRPPRLPRPRPRPQHQPRP ?
Output: -0.142

Input: I am curious: what shrunken log2 fold change value has been reported for RRIRGRPPRLPRPRPRPKKFPRP ?
Output: 0.582

Input: I am curious: what shrunken log2 fold change value has been reported for RRIRNRPPRLPRPRPRPHGTPRP ?
Output: -0.105

Input: I am curious: what shrunken log2 fold change value has been reported for RRIRNRPPRLPRPRPRPGCQPRP ?
Output: -0.108

Input: I am curious: what shrunken log2 fold change value has been reported for RRIRRRPPRLPRPRPRPLMMPRP ?
Output: 0.8

Input: I am curious: what shrunken log2 fold change value has been reported for RRIRRRPPRLPRPRPRPCNIPRP ?
Output: -0.373

Input: I am curious: what shrunken log2 fold change value has been reported for RRIRDRPPRLPRPRPRPSLTPRP ?
Output: 0.154

Input: I am curious: what shrunken log2 fold change value has been reported for RRIRTRPPRLPRPRPRPTLQPRP ?
Output: 0.336

====

Tested on: Escherichia coli TOP10
Assay: shrunken log2 fold change of peptide-encoding DNA abundance (4.5 h post-induction vs induction); higher = less antimicrobial activity (less host growth inhibition)
Conditions: time post-induction: 4.5 h; library: site-saturation at positions 5, 18, 19, 20
# cutoff -0.03 applies to shrunken log2 fold change; >= gives Y, < gives N

# example entries with known answers
RRIRKRPPRLPRPRPRPDLWPRP	Y
RRIRHRPPRLPRPRPRPHWDPRP	N
RRIRQRPPRLPRPRPRPCPNPRP	N
RRIRQRPPRLPRPRPRPNRGPRP	N
RRIRCRPPRLPRPRPRPVWTPRP	Y
RRIRMRPPRLPRPRPRPGRWPRP	Y

Input: # bool: shrunken log2 fold change of RRIRQRPPRLPRPRPRPPRYPRP >= -0.03
Output: Y

====

System: Escherichia coli TOP10;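 note: peptides expressed intracellularly from a pBAD plasmid library in pooled LB shake-flask culture, induced with 0.3% L-arabinose, DNA abundance read by NGS, three biological replicates, DESeq2 with apeglm shrinkage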
Test: shrunken log2 fold change of peptide-encoding DNA abundance (4.5 h post-induction vs induction); higher = less antimicrobial activity (less host growth inhibition)
Conditions: time post-induction: 4.5 h; library: site-saturation at positions 5, 18, 19, 20
# cutoff 0.05 applies to shrunken log2 fold change; >= gives true, < gives false

# example entries with known answers
RRIRFRPPRLPRPRPRPSHCPRP	false
RRIRYRPPRLPRPRPRPIKTPRP	false
RRIRVRPPRLPRPRPRPVEQPRP	false

Input: # bool: shrunken log2 fold change of RRIRHRPPRLPRPRPRPCTKPRP >= 0.05
Output: true

Input: # bool: shrunken log2 fold change of RRIRMRPPRLPRPRPRPNRMPRP >= 0.05
Output: false

Input: # bool: shrunken log2 fold change of RRIRERPPRLPRPRPRPGSSPRP >= 0.05
Output: false

Input: # bool: shrunken log2 fold change of RRIRHRPPRLPRPRPRPDCTPRP >= 0.05
Output: false

Input: # bool: shrunken log2 fold change of RRIRGRPPRLPRPRPRPWTHPRP >= 0.05
Output: false

Input: # bool: shrunken log2 fold change of RRIRVRPPRLPRPRPRPPHFPRP >= 0.05
Output: true

Input: # bool: shrunken log2 fold change of RRIRDRPPRLPRPRPRPYDLPRP >= 0.05
Output: false

Values were extracted from the supplement of paper PMC9112550.
